- System: U2OS
- Experiment: Multiplex assay against U2OS
- Assay type: toxicity, cell-based
- Particulars: human, 48 h, 10 µM, compound concentration 10 uM, replicate 2
Decision: Population Fragmented Nuclei (%) compared against 10%; not below it gives Fulfilled, below it gives Not fulfilled.

IN: Confirm if Population Fragmented Nuclei (%) reported for the compound Cc1cc(-c2ccc3c(c2)CC[C@H]3N2CC3(CCN(C(=O)Cc4cn5cc(C)sc5n4)CC3)C2)ncn1 [PF-5190457] is 10% or above.
OUT: Fulfilled

IN: Confirm if Population Fragmented Nuclei (%) reported for the compound CCC(=O)OCC(=O)[C@@]1(OC(=O)CC)[C@@H](C)C[C@H]2[C@@H]3CCC4=CC(=O)C=C[C@]4(C)[C@@]3(Cl)[C@@H](O)C[C@@]21C [BECLOMETHASONE DIPROPIONATE] is 10% or above.
OUT: Fulfilled

IN: Confirm if Population Fragmented Nuclei (%) reported for the compound CN(C)C(=O)Cn1cc(-c2ccc(-c3nnc4ccccn34)cc2)cn1 is 10% or above.
OUT: Not fulfilled

IN: Confirm if Population Fragmented Nuclei (%) reported for the compound COc1cc(OC2CCN(C(C)=O)CC2)ccc1C(=O)N1CCC(N2C(=O)OCc3ccccc32)CC1 is 10% or above.
OUT: Fulfilled

IN: Confirm if Population Fragmented Nuclei (%) reported for the compound O=c1nc2[nH]c3ccccc3nc-2c(=O)[nH]1 [ALLOXAZINE] is 10% or above.
OUT: Fulfilled

###

- System: Fibroblast
- Experiment: Multiplex assay against human fibroblast
- Format: toxicity, cell-based
- Particulars: 24 h, 10 µM, compound concentration 10 uM, replicate 2
Decision: Population Pyknosed Nuclei (%) compared against 20%; not below it gives true (1), below it gives false (0).

IN: Confirm if Population Pyknosed Nuclei (%) reported for the molecule Cc1ccc(OCC(O)C(C)NC(C)C)c2c1CCC2.Cl (stereo not given) is 20% or above.
OUT: false (0)

IN: Confirm if Population Pyknosed Nuclei (%) reported for the molecule N[C@](CC1c2ccccc2Oc2ccccc21)(C(=O)O)[C@H]1C[C@@H]1C(=O)O is 20% or above.
OUT: false (0)

IN: Confirm if Population Pyknosed Nuclei (%) reported for the molecule COCCn1c(C)c(C)s/c1=N\C(=O)C1C(C)(C)C1(C)C is 20% or above.
OUT: true (1)

IN: Confirm if Population Pyknosed Nuclei (%) reported for the molecule CSc1nc(NC2CCCC2)c([N+](=O)[O-])c(NC2CCCC2)n1 [GS-39783] is 20% or above.
OUT: true (1)

IN: Confirm if Population Pyknosed Nuclei (%) reported for the molecule CC(C)(C)c1ccc(CSc2cnn(C(C)(C)C)c(=O)c2Cl)cc1 [PYRIDABEN] is 20% or above.
OUT: true (1)

###

- Test system: U2OS
- Experiment: Multiplex assay against U2OS
- Format: toxicity, cell-based
- Particulars: human, 12 h, 1 µM, compound concentration 1 uM, replicate 2
Give measured Population Mitotic Cells (%) for each item. Keep answers brief.
The figure you give is taken to be in %; do not add the unit.

IN: // lookup Population Mitotic Cells (%) for COc1c(Nc2ccc(S(C)(=O)=O)nc2C)ncnc1OC1CCN(C(=O)OC(C)C)CC1
OUT: 25

IN: // lookup Population Mitotic Cells (%) for COCCCN1CCC(NC(=O)c2cc(Cl)c(N)c3c2OCC3)CC1 [PRUCALOPRIDE]
OUT: 12

IN: // lookup Population Mitotic Cells (%) for C=CCN1C[C@H](C(=O)N(CCCN(C)C)C(=O)NCC)C[C@@H]2c3cccc4[nH]cc(c34)C[C@H]21
OUT: 42

IN: // lookup Population Mitotic Cells (%) for Cc1cc(NC(=O)NCCN2CCC(O)(Cc3ccccc3)CC2)c2ccccc2n1
OUT: 28
